- System: PSMA+ LNCaP cells
- ASSAY_TEXT: cell surface binding and internalization of radiolabeled compounds
- Format: cell-based
- SETUP_CONDITIONS: 68Ga-labeled, blocked
Where a SMILES comes first, the peptide text is derived from it. [ ]: non-standard residue; d: D form. The star is where a group is joined. DOTA = O=C(O)CN1CCN(CC(=O)O)CCN(CC(=O)*)CCN(CC(=O)O)CC1; EuK = O=C(O)CC[C@H](NC(=O)N[C@@H](CCCCN*)C(=O)O)C(=O)O; 2Nal = N[C@@H](Cc1ccc2ccccc2c1)C(=O)O; Trx = NC[C@H]1CC[C@H](C(=O)O)CC1
Give measured Cell Surface binding for each item. Keep answers brief.
Provide only the numeric value, understood in % ID/10^5 cells.

Query :: What Cell Surface binding value was documented for this molecule, O=C(O)CC[C@H](NC(=O)N[C@@H](CCCCNC(=O)[C@H](Cc1c[nH]cn1)NC(=O)[C@H](Cc1c[nH]cn1)NC(=O)[C@H](Cc1c[nH]cn1)NC(=O)[C@H](Cc1ccc2ccccc2c1)NC(=O)[C@H]1CC[C@H](CNC(=O)CN2CCN(CC(=O)O)CCN(CC(=O)O)CCN(CC(=O)O)CC2)CC1)C(=O)O)C(=O)O [PS-8, DOTA-CHx-2NaI-(H)3-PSMA] ({DOTA-Trx}-[2Nal]HHH-EuK) ?
Result :: 0.038

Query :: What Cell Surface binding value was documented for this molecule, O=C(O)CC[C@H](NC(=O)N[C@@H](CCCCNC(=O)[C@H](Cc1ccc2ccccc2c1)NC(=O)[C@H]1CC[C@H](CNC(=O)[C@H](Cc2c[nH]cn2)NC(=O)[C@H](Cc2c[nH]cn2)NC(=O)[C@H](Cc2c[nH]cn2)NC(=O)CN2CCN(CC(=O)O)CCN(CC(=O)O)CCN(CC(=O)O)CC2)CC1)C(=O)O)C(=O)O [PS-7, DOTA-(H)3-CHx-2NaI-PSMA] ({DOTA}-HHH[Trx][2Nal]-EuK) ?
Result :: 0.123

Query :: What Cell Surface binding value was documented for this molecule, O=C(O)CCC(NC(=O)NC(CCCCNC(=O)C(Cc1ccc2ccccc2c1)NC(=O)C1CCC(CNC(=O)CN2CCN(CC(=O)O)CCN(CC(=O)O)CCN(CC(=O)O)CC2)CC1)C(=O)O)C(=O)O (stereo not drawn) [PSMA-617, reference compound] ?
Result :: 0.063

---

- Test system: PSMA+ LNCaP cells
- ASSAY_TEXT: cell surface binding and internalization of radiolabeled compounds
- Format: cell-based
- SETUP_CONDITIONS: 68Ga-labeled, blocked
Where a SMILES comes first, the peptide text is derived from it. [ ]: non-standard residue; d: D form. The star is where a group is joined. DOTA = O=C(O)CN1CCN(CC(=O)O)CCN(CC(=O)*)CCN(CC(=O)O)CC1; EuK = O=C(O)CC[C@H](NC(=O)N[C@@H](CCCCN*)C(=O)O)C(=O)O; 2Nal = N[C@@H](Cc1ccc2ccccc2c1)C(=O)O; Trx = NC[C@H]1CC[C@H](C(=O)O)CC1
Give measured Cell Surface binding for each item. Keep answers brief.
Provide only the numeric value, understood in % ID/10^5 cells.

Query :: What Cell Surface binding value was documented for this compound, O=C(O)CC[C@H](NC(=O)N[C@@H](CCCCNC(=O)[C@H](Cc1ccc2ccccc2c1)NC(=O)[C@H]1CC[C@H](CNC(=O)[C@H](Cc2c[nH]cn2)NC(=O)[C@H](CCC(=O)O)NC(=O)[C@H](Cc2c[nH]cn2)NC(=O)[C@H](CCC(=O)O)NC(=O)[C@H](Cc2c[nH]cn2)NC(=O)[C@H](CCC(=O)O)NC(=O)[C@H](Cc2c[nH]cn2)NC(=O)[C@H](CCC(=O)O)NC(=O)CN2CCN(CC(=O)O)CCN(CC(=O)O)CCN(CC(=O)O)CC2)CC1)C(=O)O)C(=O)O [PS-4, DOTA-(EH)4-CHx-2NaI-PSMA] ({DOTA}-EHEHEHEH[Trx][2Nal]-EuK) ?
Result :: 0.083

Query :: What Cell Surface binding value was documented for this compound, O=C(O)CC[C@H](NC(=O)N[C@@H](CCCCNC(=O)[C@H](Cc1ccc2ccccc2c1)NC(=O)[C@H](Cc1c[nH]cn1)NC(=O)[C@H](CCC(=O)O)NC(=O)[C@H](Cc1c[nH]cn1)NC(=O)[C@H](CCC(=O)O)NC(=O)[C@H](Cc1c[nH]cn1)NC(=O)[C@H](CCC(=O)O)NC(=O)[C@H]1CC[C@H](CNC(=O)CN2CCN(CC(=O)O)CCN(CC(=O)O)CCN(CC(=O)O)CC2)CC1)C(=O)O)C(=O)O [PS-3, DOTA-Chx-(EH)3-2NaI-PSMA] ({DOTA-Trx}-EHEHEH[2Nal]-EuK) ?
Result :: 0.183

---

- ASSAYED_TARGET: PSMA (Homo sapiens)
- Construct: host or cells: LNCaP cells
- Sequence (Q04609 whole entry): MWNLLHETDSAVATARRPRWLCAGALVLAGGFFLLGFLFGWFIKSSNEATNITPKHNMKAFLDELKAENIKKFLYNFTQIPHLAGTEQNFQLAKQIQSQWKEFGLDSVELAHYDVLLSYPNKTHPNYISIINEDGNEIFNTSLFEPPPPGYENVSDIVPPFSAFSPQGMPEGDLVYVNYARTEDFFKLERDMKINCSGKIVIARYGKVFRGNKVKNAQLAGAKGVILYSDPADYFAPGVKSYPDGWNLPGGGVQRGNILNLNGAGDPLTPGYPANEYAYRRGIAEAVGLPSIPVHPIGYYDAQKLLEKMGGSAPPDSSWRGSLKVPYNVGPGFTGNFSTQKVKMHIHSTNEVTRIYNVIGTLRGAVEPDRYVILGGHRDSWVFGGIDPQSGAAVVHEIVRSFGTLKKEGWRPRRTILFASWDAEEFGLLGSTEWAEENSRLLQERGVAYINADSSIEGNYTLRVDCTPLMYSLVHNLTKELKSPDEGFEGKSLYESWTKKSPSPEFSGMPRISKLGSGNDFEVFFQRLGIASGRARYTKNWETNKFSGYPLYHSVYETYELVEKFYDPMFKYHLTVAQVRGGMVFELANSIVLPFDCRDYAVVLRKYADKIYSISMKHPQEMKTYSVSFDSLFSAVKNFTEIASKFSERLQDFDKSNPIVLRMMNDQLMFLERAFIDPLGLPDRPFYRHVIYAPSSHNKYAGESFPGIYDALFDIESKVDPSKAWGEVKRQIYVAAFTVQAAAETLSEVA
- ASSAY_TEXT: competitive cell binding assay vs 68Ga-labeled PSMA-10 on LNCaP cells
- SETUP_CONDITIONS: LNCaP cells, 0.8 nM 68Ga-PSMA-10 radioligand; read-out: Specific Binding Affinity IC50
Where a SMILES comes first, the peptide text is derived from it. [ ]: non-standard residue; d: D form. The star is where a group is joined. DOTA = O=C(O)CN1CCN(CC(=O)O)CCN(CC(=O)*)CCN(CC(=O)O)CC1; EuK = O=C(O)CC[C@H](NC(=O)N[C@@H](CCCCN*)C(=O)O)C(=O)O; 2Nal = N[C@@H](Cc1ccc2ccccc2c1)C(=O)O; Trx = NC[C@H]1CC[C@H](C(=O)O)CC1
MEASUREMENT_NAME: IC50 (nM)
Provide only the numeric value, understood in nM.

Query :: What IC50 value was documented for this compound, O=C(O)CC[C@H](NC(=O)N[C@@H](CCCCNC(=O)[C@H](Cc1c[nH]cn1)NC(=O)[C@H](Cc1c[nH]cn1)NC(=O)[C@H](Cc1c[nH]cn1)NC(=O)[C@H](Cc1ccc2ccccc2c1)NC(=O)[C@H]1CC[C@H](CNC(=O)CN2CCN(CC(=O)O)CCN(CC(=O)O)CCN(CC(=O)O)CC2)CC1)C(=O)O)C(=O)O [PS-8, DOTA-CHx-2NaI-(H)3-PSMA] ({DOTA-Trx}-[2Nal]HHH-EuK) ?
Result :: 78.6

Query :: What IC50 value was documented for this compound, O=C(O)CC[C@H](NC(=O)N[C@@H](CCCCNC(=O)[C@H](Cc1c[nH]cn1)NC(=O)[C@H](CCC(=O)O)NC(=O)[C@H](Cc1c[nH]cn1)NC(=O)[C@H](CCC(=O)O)NC(=O)[C@H](Cc1c[nH]cn1)NC(=O)[C@H](CCC(=O)O)NC(=O)[C@H](Cc1ccc2ccccc2c1)NC(=O)[C@H]1CC[C@H](CNC(=O)CN2CCN(CC(=O)O)CCN(CC(=O)O)CCN(CC(=O)O)CC2)CC1)C(=O)O)C(=O)O [PS-1, DOTA-CHx-2NaI-(EH)3-PSMA] ({DOTA-Trx}-[2Nal]EHEHEH-EuK) ?
Result :: 56

Query :: What IC50 value was documented for this compound, O=C(O)CC[C@H](NC(=O)N[C@@H](CCCCNC(=O)[C@H](Cc1ccc2ccccc2c1)NC(=O)[C@H]1CC[C@H](CNC(=O)[C@H](CCC(=O)O)NC(=O)[C@H](Cc2c[nH]cn2)NC(=O)[C@H](CCC(=O)O)NC(=O)[C@H](Cc2c[nH]cn2)NC(=O)[C@H](CCC(=O)O)NC(=O)[C@H](Cc2c[nH]cn2)NC(=O)CN2CCN(CC(=O)O)CCN(CC(=O)O)CCN(CC(=O)O)CC2)CC1)C(=O)O)C(=O)O [PS-4.2, DOTA-(HE)3-CHx-2NaI-PSMA] ({DOTA}-HEHEHE[Trx][2Nal]-EuK) ?
Result :: 27.9

---

- System: PSMA+ LNCaP cells
- ASSAY_TEXT: cell surface binding and internalization of radiolabeled compounds
- Format: cell-based
- SETUP_CONDITIONS: 68Ga-labeled, blocked
Where a SMILES comes first, the peptide text is derived from it. [ ]: non-standard residue; d: D form. The star is where a group is joined. DOTA = O=C(O)CN1CCN(CC(=O)O)CCN(CC(=O)*)CCN(CC(=O)O)CC1; EuK = O=C(O)CC[C@H](NC(=O)N[C@@H](CCCCN*)C(=O)O)C(=O)O; 2Nal = N[C@@H](Cc1ccc2ccccc2c1)C(=O)O; Trx = NC[C@H]1CC[C@H](C(=O)O)CC1
Give measured Cell Surface binding for each item. Keep answers brief.
Provide only the numeric value, understood in % ID/10^5 cells.

Query :: Recorded Cell Surface binding for O=C(O)CC[C@H](NC(=O)N[C@@H](CCCCNC(=O)[C@H](Cc1ccc2ccccc2c1)NC(=O)[C@H](CCC(=O)O)NC(=O)[C@H](CCC(=O)O)NC(=O)[C@H](CCC(=O)O)NC(=O)[C@H]1CC[C@H](CNC(=O)CN2CCN(CC(=O)O)CCN(CC(=O)O)CCN(CC(=O)O)CC2)CC1)C(=O)O)C(=O)O [PS-9, DOTA-CHx-(E)3-2NaI-PSMA] ({DOTA-Trx}-EEE[2Nal]-EuK) with PSMA+ LNCaP cells, please?
Result :: 0.060

Query :: Recorded Cell Surface binding for O=C(O)CC[C@H](NC(=O)N[C@@H](CCCCNC(=O)[C@H](Cc1ccc2ccccc2c1)NC(=O)[C@H](Cc1c[nH]cn1)NC(=O)[C@H](Cc1c[nH]cn1)NC(=O)[C@H](Cc1c[nH]cn1)NC(=O)[C@H]1CC[C@H](CNC(=O)CN2CCN(CC(=O)O)CCN(CC(=O)O)CCN(CC(=O)O)CC2)CC1)C(=O)O)C(=O)O [PS10, DOTA-CHx-(H)3-2NaI-PSMA] ({DOTA-Trx}-HHH[2Nal]-EuK) with PSMA+ LNCaP cells, please?
Result :: 0.027

Query :: Recorded Cell Surface binding for O=C(O)CC[C@H](NC(=O)N[C@@H](CCCCNC(=O)[C@H](Cc1c[nH]cn1)NC(=O)[C@H](CCC(=O)O)NC(=O)[C@H](Cc1c[nH]cn1)NC(=O)[C@H](CCC(=O)O)NC(=O)[C@H](Cc1c[nH]cn1)NC(=O)[C@H](CCC(=O)O)NC(=O)[C@H](Cc1ccc2ccccc2c1)NC(=O)[C@H]1CC[C@H](CNC(=O)CN2CCN(CC(=O)O)CCN(CC(=O)O)CCN(CC(=O)O)CC2)CC1)C(=O)O)C(=O)O [PS-1, DOTA-CHx-2NaI-(EH)3-PSMA] ({DOTA-Trx}-[2Nal]EHEHEH-EuK) with PSMA+ LNCaP cells, please?
Result :: 0.069

Query :: Recorded Cell Surface binding for O=C(O)CC[C@H](NC(=O)N[C@@H](CCCCNC(=O)[C@H](CCC(=O)O)NC(=O)[C@H](CCC(=O)O)NC(=O)[C@H](CCC(=O)O)NC(=O)[C@H](Cc1ccc2ccccc2c1)NC(=O)[C@H]1CC[C@H](CNC(=O)CN2CCN(CC(=O)O)CCN(CC(=O)O)CCN(CC(=O)O)CC2)CC1)C(=O)O)C(=O)O [PS-6, DOTA-CHx-2NaI-(E)3-PSMA] ({DOTA-Trx}-[2Nal]EEE-EuK) with PSMA+ LNCaP cells, please?
Result :: 0.050
